Test system: 935938-334-R-J1-PDC complex spheroid viability;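 note: spheroids exposed to drugs for seven days before viability read; 100% = DMSO vehicle control wells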
Assay: Anticancer human tumor 935938-334-R-J1-PDC patient-derived small intestine adenocarcinoma cell line growth inhibition [POLQ]
Details: second compound 1 µM; first compound 3.16 µM; hits give low values
Give measured viability, T/C for each item. Keep answers brief.
Your answer should be a plain number; it is taken to be in %.

What value of viability, T/C has been recorded for this entry: O=c1[nH]cc(F)c(=O)[nH]1 + Nc1ccc(C#CCN(C(=O)Cc2ncc(C(F)(F)F)cc2C(F)(F)F)c2ccc(F)cc2)nn1
55

What value of viability, T/C has been recorded for this entry: O=C(c1cc(Cc2n[nH]c(=O)c3ccccc23)ccc1F)N1CCN(C(=O)C2CC2)CC1 + Nc1ccc(C#CCN(C(=O)Cc2ncc(C(F)(F)F)cc2C(F)(F)F)c2ccc(F)cc2)nn1
111

What value of viability, T/C has been recorded for this entry: CNCc1ccc(-c2[nH]c3cc(F)cc4c3c2CCNC4=O)cc1 + Cc1cccc(N(C)C(=O)C2C(O)CCN2c2nc(C)cc(C(F)(F)F)c2C#N)c1
93.2

What value of viability, T/C has been recorded for this entry: CC1COCCN1c1cc(-c2ccnn2C)c2ccnc(-c3ccn[nH]3)c2n1 (stereo not given) + Cc1cccc(N(C)C(=O)C2C(O)CCN2c2nc(C)cc(C(F)(F)F)c2C#N)c1
21.9

What value of viability, T/C has been recorded for this entry: COc1cc(C2c3cc4c(cc3C(OC3OC5COC(C)OC5C(O)C3O)C3COC(=O)C23)OCO4)cc(OC)c1O (stereo not given) + COC1C(OC(N)=O)C(O)C(Oc2ccc3c(O)c(NC(=O)c4ccc(O)c(CC=C(C)C)c4)c(=O)oc3c2C)OC1(C)C
26.7

What value of viability, T/C has been recorded for this entry: C#Cc1c(F)ccc2cc(O)cc(-c3ncc4c(N5CC6CCC(C5)N6)nc(OCC56CCCN5CC(F)C6)nc4c3F)c12 (stereo not given) + Nc1ccc(C#CCN(C(=O)Cc2ncc(C(F)(F)F)cc2C(F)(F)F)c2ccc(F)cc2)nn1
48.6

What value of viability, T/C has been recorded for this entry: CC1COCCN1c1cc(C2(S(C)(=N)=O)CC2)nc(-c2ccnc3[nH]ccc23)n1 (stereo not given) + Cc1cccc(N(C)C(=O)C2C(O)CCN2c2nc(C)cc(C(F)(F)F)c2C#N)c1
44.4

What value of viability, T/C has been recorded for this entry: CC1COCCN1c1cc(C2(S(C)(=N)=O)CC2)nc(-c2ccnc3[nH]ccc23)n1 (stereo not given) + COC1C(OC(N)=O)C(O)C(Oc2ccc3c(O)c(NC(=O)c4ccc(O)c(CC=C(C)C)c4)c(=O)oc3c2C)OC1(C)C
65.8

What value of viability, T/C has been recorded for this entry: COc1cc2cc(C(=O)CCC(=O)O)sc2cc1OC + COC1C(OC(N)=O)C(O)C(Oc2ccc3c(O)c(NC(=O)c4ccc(O)c(CC=C(C)C)c4)c(=O)oc3c2C)OC1(C)C
108

What value of viability, T/C has been recorded for this entry: CC1COCCN1c1cc(C2(O)CC3CCC(C2)O3)c2cnn(-c3ccn[nH]3)c2n1 (stereo not given) + Nc1ccc(C#CCN(C(=O)Cc2ncc(C(F)(F)F)cc2C(F)(F)F)c2ccc(F)cc2)nn1
15.3

What value of viability, T/C has been recorded for this entry: CCc1cc2c(N3CCc4c(cc(Cn5ccnc5)cc4-c4cn(C)nc4C(F)(F)F)C3=O)ccnc2c(OC)n1 + Cc1cccc(N(C)C(=O)C2C(O)CCN2c2nc(C)cc(C(F)(F)F)c2C#N)c1
65.8

What value of viability, T/C has been recorded for this entry: COc1ccc([C@@H](O)c2cc(-c3ncnc4cc(N5CCOCC5)ccc34)c(F)cc2Cl)nn1 + Nc1ccc(C#CCN(C(=O)Cc2ncc(C(F)(F)F)cc2C(F)(F)F)c2ccc(F)cc2)nn1
70.1

What value of viability, T/C has been recorded for this entry: CNCc1ccc(-c2[nH]c3cc(F)cc4c3c2CCNC4=O)cc1 + COC1C(OC(N)=O)C(O)C(Oc2ccc3c(O)c(NC(=O)c4ccc(O)c(CC=C(C)C)c4)c(=O)oc3c2C)OC1(C)C
98.8

What value of viability, T/C has been recorded for this entry: O=C(Nc1ccc(O)c(NS(=O)(=O)c2ccc(F)cc2)c1)c1ccc(-c2ccccc2)cc1 + Cc1cccc(N(C)C(=O)C2C(O)CCN2c2nc(C)cc(C(F)(F)F)c2C#N)c1
72.8

What value of viability, T/C has been recorded for this entry: CC(C)n1c(=O)n(C)c2cnc3cc(F)c(-c4ccc(OCCCN5CCCCC5)nc4)cc3c21 + Nc1ccc(C#CCN(C(=O)Cc2ncc(C(F)(F)F)cc2C(F)(F)F)c2ccc(F)cc2)nn1
128

What value of viability, T/C has been recorded for this entry: CC1COCCN1c1cc(C2(S(C)(=N)=O)CC2)nc(-c2ccnc3[nH]ccc23)n1 (stereo not given) + Nc1ccc(C#CCN(C(=O)Cc2ncc(C(F)(F)F)cc2C(F)(F)F)c2ccc(F)cc2)nn1
38.8

What value of viability, T/C has been recorded for this entry: CC(C)n1c(=O)n(C)c2cnc3cc(F)c(-c4ccc(OCCCN5CCCCC5)nc4)cc3c21 + Cc1cccc(N(C)C(=O)C2C(O)CCN2c2nc(C)cc(C(F)(F)F)c2C#N)c1
105

What value of viability, T/C has been recorded for this entry: Nc1ccn(C2OC(CO)C(O)C2(F)F)c(=O)n1 (stereo not given) + COC1C(OC(N)=O)C(O)C(Oc2ccc3c(O)c(NC(=O)c4ccc(O)c(CC=C(C)C)c4)c(=O)oc3c2C)OC1(C)C
18.1

What value of viability, T/C has been recorded for this entry: Nc1ccn(C2OC(CO)C(O)C2(F)F)c(=O)n1 (stereo not given) + Cc1cccc(N(C)C(=O)C2C(O)CCN2c2nc(C)cc(C(F)(F)F)c2C#N)c1
22.8

What value of viability, T/C has been recorded for this entry: COc1cccc2c1C(=O)c1c(O)c3c(c(O)c1C2=O)CC(O)(C(=O)CO)CC3OC1CC(N)C(O)C(C)O1 (stereo not given) + COC1C(OC(N)=O)C(O)C(Oc2ccc3c(O)c(NC(=O)c4ccc(O)c(CC=C(C)C)c4)c(=O)oc3c2C)OC1(C)C
6.64
